procedure-summary: Metabolic stability in rat liver microsomes assessed as half life
Assay type: ADME, Microsome
quantity-kind: half-life

These solved cases illustrate the format of a correct answer.
CN(C)C(=O)c1cc2cnc(Nc3ccc(N4CCNCC4)cn3)nc2n1C1CCCC1 [RIBOCICLIB] | > 30 min
Cc1cc(C)nc(NS(=O)(=O)c2ccc(Nc3ncc4cc(C(=O)N(C)C)n(C5CCCC5)c4n3)cc2)n1 | > 30 min

Now look at this one.
Req: For the compound COc1ccccc1NC(=O)c1cc2cnc(Nc3ccc(N4CCNCC4)cn3)nc2n1C1CCCC1 , give its reported half-life.
Resp: > 30 min

---

measurement-target: CDK6/cyclin D1 (Homo sapiens)
Sequence (P24385 whole entry): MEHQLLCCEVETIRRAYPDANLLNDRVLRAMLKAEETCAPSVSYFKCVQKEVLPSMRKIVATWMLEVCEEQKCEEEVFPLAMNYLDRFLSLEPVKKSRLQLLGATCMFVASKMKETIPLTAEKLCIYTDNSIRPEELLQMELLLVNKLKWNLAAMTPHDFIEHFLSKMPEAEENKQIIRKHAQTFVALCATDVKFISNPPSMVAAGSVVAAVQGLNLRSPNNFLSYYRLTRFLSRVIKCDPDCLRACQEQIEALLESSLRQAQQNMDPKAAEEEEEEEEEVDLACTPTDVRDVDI
Sequence (Q00534 whole entry): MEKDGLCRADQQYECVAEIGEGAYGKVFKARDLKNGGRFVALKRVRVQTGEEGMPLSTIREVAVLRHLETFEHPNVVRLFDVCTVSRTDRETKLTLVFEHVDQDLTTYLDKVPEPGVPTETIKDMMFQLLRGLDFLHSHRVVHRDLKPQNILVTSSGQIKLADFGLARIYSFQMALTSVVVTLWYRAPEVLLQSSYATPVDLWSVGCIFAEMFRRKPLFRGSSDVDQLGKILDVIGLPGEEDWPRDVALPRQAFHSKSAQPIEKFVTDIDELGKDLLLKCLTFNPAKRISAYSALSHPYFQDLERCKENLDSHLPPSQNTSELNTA
procedure-summary: Inhibition of CDK6/cyclin D1 (unknown origin)
quantity-kind: pIC50
Give bare numbers, as −log10 of the molar value.

# batch size: 4; output pIC50 per entry
1. O=C(Nc1ccccc1)c1cc2cnc(Nc3ccc(N4CCNCC4)cn3)nc2n1C1CCCC1
2. COc1ccc(NC(=O)c2cc3cnc(Nc4ccc(N5CCNCC5)cn4)nc3n2C2CCCC2)c(OC)c1
3. Cc1ccccc1NC(=O)c1cc2cnc(Nc3ccc(N4CCNCC4)cn3)nc2n1C1CCCC1
4. O=C(Nc1ccccc1F)c1cc2cnc(Nc3ccc(N4CCNCC4)cn3)nc2n1C1CCCC1

Resp:
[7.20, 6.57, 7.19, 6.43]

---

measurement-target: Cyclin-dependent kinase 4/cyclin D1 (Homo sapiens, UniProt P11802)
Sequence (P11802 whole entry, one chain of several): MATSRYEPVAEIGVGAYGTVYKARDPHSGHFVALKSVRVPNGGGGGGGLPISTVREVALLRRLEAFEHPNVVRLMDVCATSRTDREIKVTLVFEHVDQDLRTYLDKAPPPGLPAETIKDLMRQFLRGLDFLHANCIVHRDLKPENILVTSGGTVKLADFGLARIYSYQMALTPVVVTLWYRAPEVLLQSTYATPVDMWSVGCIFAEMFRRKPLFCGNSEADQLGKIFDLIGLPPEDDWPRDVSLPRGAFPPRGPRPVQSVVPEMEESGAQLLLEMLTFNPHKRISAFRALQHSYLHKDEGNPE
procedure-summary: Inhibition of CDK4/cyclin D1 (unknown origin)
pIC50: −log10 of the molar value.
Rule: y for pIC50 not less than 7, n for anything less.

Req: Could you verify whether the entry CN(C)C(=O)c1cc2cnc(Nc3cccnc3)nc2n1C1CCCC1 shows pIC50 of no less than 7?
Resp: n

---

measurement-target: Cyclin-dependent kinase 4/cyclin D1 (Homo sapiens, UniProt P11802)
procedure-summary: Inhibition of CDK4/cyclin D1 (unknown origin)
Answer each item with its documented IC50.
Answers are plain numbers, in nM.

Field: example entries. Status: answers known.
O=C(Nc1ccccc1)c1cc2cnc(Nc3ccccc3)nc2n1C1CCCC1 | 1190
COc1ccc(NC(=O)c2cc3cnc(Nc4ccc(N5CCNCC5)cn4)nc3n2C2CCCC2)cc1 | 121
COc1ccccc1NC(=O)c1cc2cnc(Nc3ccc(N4CCNCC4)cn3)nc2n1C1CCCC1 | 20.5
O=C(c1cc2cnc(Nc3ccc(N4CCNCC4)cn3)nc2n1C1CCCC1)N1CCCCC1 | 861

Next:
Req: Print Cyclin-dependent kinase 4/cyclin D1 (Homo sapiens, UniProt P11802) IC50 for COc1cccc(NC(=O)c2cc3cnc(Nc4ccc(N5CCNCC5)cn4)nc3n2C2CCCC2)c1 .
Resp: 53.4

---

measurement-target: Cyclin-dependent kinase 4/cyclin D1 (Homo sapiens)
procedure-summary: Inhibition of CDK4/cyclin D1 (unknown origin)
pIC50: −log10 of the molar value.
Give measured pIC50 for each item. Keep answers brief.

O=C(Nc1ccccc1)c1cc2cnc(Nc3ccc(N4CCNCC4)cn3)nc2n1Cc1ccccc1 | < 4.00
O=C(Nc1ccccc1)c1cc2cnc(N3CCN(c4ccc(Cl)cc4)CC3)nc2n1C1CCCC1 | < 4.00

Note: attention shifts to another entry.
Req: With Cyclin-dependent kinase 4/cyclin D1 (Homo sapiens) as the test system, provide measured pIC50 for this compound: CN(C)C(=O)c1cc2cnc(Nc3ccc(N4CCNCC4)cn3)nc2n1Cc1ccccc1
Resp: < 4.00
